The measured values listed here are drawn from patent US9017689B2.

Experiment: Solubility screening in trehalose matrices pH 2.65 to 7.03;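 also: test items are peptides, each checked for solubility in every trehalose matrix, the matrices made up in distilled deionised water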
Format: physicochemical
Details: 2 mM HCl and 260 mM trehalose dihydrate, pH 2.65
Ends that are not written are not given here.
Property: Solubility [mg per ml 'as is'] (mg per ml ‘as is’)
Enter your answer as a number in mg per ml ‘as is’; do not include the unit.

Past entries and their recorded results:
| Polymer sequence | Unit abbrev | Solubility [mg per ml 'as is'] |
| --- | --- | --- |
| AERERIFKRFDANGEGK [Bir16A] | mg per ml ‘as is’ | 24.86 |
| ETLLRAVESYLLAHSDAY [Bir09] | mg per ml ‘as is’ | 0.92 |
| KEMGETLLRAVESYLLAHS [Bir09B] | mg per ml ‘as is’ | 12.20 |

Please fill in: Solubility [mg per ml 'as is'] reported for PAARMFKAFILEGDKLVPK [Bir02J] = 23.60

Lab book: Solubility [mg per ml 'as is'] of FNYETETTSVIPAARK [BIR1I] noted as 19.50

Lookup result for AKYMVIQGEPGRVIRGK [Bir12B] ; measured Solubility [mg per ml 'as is']: 10.22

The reported value for SNEIKIVATPEGGSILK [Bir07C] in terms of Solubility [mg per ml 'as is'] is 11.48

Value of measured Solubility [mg per ml 'as is'] for the entry PGTIKKISFPEGFPFKYV [Bir04] : 20.50
